Each recorded value in this set is attributed to ChEMBL document CHEMBL1201862.

Test system: Streptococcus sp. 'group A'
Assay: Streptococcus pyogenes SK(-)GAS viability under kanamycin – luminescence, BacTiterGlo, confirmation, counter-screen for streptokinase expression inhibitor project, dose response (AID 1900)
Type: functional, organism-based
Activity calls are given as the source filed them. No stated cut-off is given here; in the data, actives have a measured EC50 and inactives only a lower limit.
Assign EC50 to each entry below.

>>> print(df.to_string())
                                   compound  reported_endpoint             result
0      C/C(=N\NC(=O)c1cc2ccccc2cc1O)c1cccs1               EC50   18.3 µM (active)
1  O=C1/C(=C/c2cccnc2)S/C(=N/Cc2ccccc2)N1Cc1ccccc1               EC50   21.6 µM (active)
2  CC(Oc1ccc(Cl)cc1Cl)C(=O)Nc1ccc2oc(-c3ccncc3)nc2c1 (stereo not given)               EC50   8.75 µM (active)
3  Cc1[nH]cnc1C(=O)N/N=C/c1ccc([N+](=O)[O-])s1               EC50   2.91 µM (active)
4  Cc1[nH]c2ccccc2c1/C=C1\SC(=N)N(c2nccs2)C1=O               EC50  0.198 µM (active)
5  COc1c(CC=C(C)C)cc(C2CC(=O)c3c(O)cc(O)cc3O2)c(CC=C(C)C)c1O (stereo not given)               EC50   3.02 µM (active)
6  O=c1[nH]c(=O)n([C@H]2C[C@H](O)[C@@H](CO)O2)cc1F [FLOXURIDINE]               EC50  0.916 µM (active)
7  CCOC(=O)c1cnn(-c2nc(-c3ccccc3)cs2)c1C(F)(F)F               EC50   14.6 µM (active)

The following compounds each have a reported value; give each one's EC50.
1. O=S(=O)(Nc1nc2ccccc2nc1Cl)c1ccc2ccccc2c1
2. N#CCSc1nc2ccc(N3CCOCC3)cc2c(=O)n1CCc1ccccc1

a:
1. 9.62 µM (active)
2. 7.19 µM (active)

* * *

Molecular target: RNA-binding protein pos-1 (Caenorhabditis elegans)
Sequence (G5EF15 whole entry): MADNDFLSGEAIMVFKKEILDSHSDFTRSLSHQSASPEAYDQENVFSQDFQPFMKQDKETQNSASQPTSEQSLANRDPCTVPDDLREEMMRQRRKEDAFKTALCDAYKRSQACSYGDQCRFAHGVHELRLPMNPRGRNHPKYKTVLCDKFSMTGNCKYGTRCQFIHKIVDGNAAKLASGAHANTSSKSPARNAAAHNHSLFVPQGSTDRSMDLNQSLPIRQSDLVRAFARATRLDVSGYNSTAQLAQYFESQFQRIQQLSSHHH
Assay: disruptors of C. elegans POS-1 RNA interaction – biochemical, fluorescence polarization, dose response (AID 1964);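 further: purified POS-1 fused to maltose binding protein made in E. coli; potency of compounds blocking POS-1 binding to fluorescent RNA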
Activity calls are given as the source filed them. Rule as the data show it: actives have a measured EC50 and inactives only a lower limit.
Reported endpoint: EC50

The following compounds each have a reported value; give each one's EC50.
1. Cn1c(O)nc2cc(Cl)cnc21
2. O=C(O)CSc1cc(NS(=O)(=O)c2ccc(Cl)cc2)c2ccccc2c1O
3. CCC(=O)OC1(C)C(=O)C=C2C=C(c3ccc(C#N)cc3)OC=C2C1=O (centres undefined)
4. CC1(OC(=O)c2cnc3ccccc3n2)C(=O)C=C2C=C(C3CC3)OC=C2C1=O (centres undefined)

a:
27 µM (active)
36.8 µM (active)
85.4 µM (active)
> 300 µM (not active)
